target: human GPR119 (Homo sapiens, UniProt Q8TDV5); construct: expression vector for human GPR119 cDNA (Acc. No. NP_848566); expressed in transfected cells; experiment: GPR119 activation / intracellular cAMP stimulation, AlphaScreen cAMP Assay in Min-6/hGPR119 cells; type: cell-based; conditions: MIN6 cells stably transfected with human GPR119, 45 minutes incubation at room temperature
Sequence (Q8TDV5 whole entry): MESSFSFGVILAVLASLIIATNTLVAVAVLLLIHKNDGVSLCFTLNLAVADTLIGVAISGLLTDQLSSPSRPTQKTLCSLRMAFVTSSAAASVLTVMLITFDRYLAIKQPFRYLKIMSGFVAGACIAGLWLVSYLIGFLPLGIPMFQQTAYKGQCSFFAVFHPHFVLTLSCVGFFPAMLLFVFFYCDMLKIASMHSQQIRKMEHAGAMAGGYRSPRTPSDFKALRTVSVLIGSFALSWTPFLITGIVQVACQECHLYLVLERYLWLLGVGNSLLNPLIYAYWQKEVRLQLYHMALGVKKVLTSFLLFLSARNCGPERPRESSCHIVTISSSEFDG
endpoint-label: EC50 (nM)

Answered examples (5):
• Cc1cnc(N2CCC3(CC2)CC2(Cc4cc(-c5ccc(S(C)(=O)=O)cc5)ncc4O2)C3)nc1 [Example 7] = 42
• CC(C)Oc1cnc(N2CCC3(CC2)CC2(Cc4cc(C5=CCN(S(C)(=O)=O)CC5)ncc4O2)C3)nc1 [Example 15] = 10
• CS(=O)(=O)N1CC=C(c2cc3c(cn2)OC2(C3)CC3(CCN(c4ccc(C(F)(F)F)cn4)CC3)C2)CC1 [Example 11] = 13
• CC(C)(C)OC(=O)N1CCC2(CC1)CC1(Cc3cc(C4CCN(S(C)(=O)=O)CC4)ncc3O1)C2 [Example 19] = 106
• C[C@H](OC(=O)N1CCC2(CC1)CC1(Cc3cc(C4=CCN(S(C)(=O)=O)CC4)ncc3O1)C2)C(F)(F)F [Example 27] = 4

a: CC(C)(C)OC(=O)N1CCC2(CC1)CC1(Cc3cc(-c4ccc(S(C)(=O)=O)cc4F)ncc3O1)C2 [Example 3]
b: CC(C)(C)OC(=O)N1CCC2(CC1)CC1(Cc3cc(-c4ccc(S(C)(=O)=O)nc4)ncc3O1)C2 [Example 13]
Task item: Given a and given b , which shows the smaller recorded EC50? Use the label to indicate which entry you chose.
Reply: a

These entries and their values trace back to patent US8809361B2.
